System: Oryza sativa, (L.) Tebonnet
Assay: Rice tolerance to post-transplant applications under flooded paddy conditions (Example 187), ORYSAT (Rice, Tebonnet); note: meaning of each grade not given here
Settings: Rate 0.1250 kg/ha, rated three to four weeks after treatment
Recorded endpoint: herbicidal effect rating ORYSAT
Lab note: write the figure by itself, no unit.

Input line: Recall the reported herbicidal effect rating ORYSAT of Cc1nsc2cc(F)c(-n3c(=O)cc(C(F)(F)F)n(C)c3=O)cc12 on Oryza sativa, (L.) Tebonnet and write it down.
Output line: 9.0

Input line: Please look at Cc1ccc(OC(C)(C)C(=O)NS(C)(=O)=O)c(-c2nsc3ccc(-n4c(=O)cc(C(F)(F)F)n(C)c4=O)cc23)c1 and tell me its recorded herbicidal effect rating ORYSAT on Oryza sativa, (L.) Tebonnet.
Output line: 7.0

Input line: Jot down herbicidal effect rating ORYSAT (Oryza sativa, (L.) Tebonnet) of COC(=O)COc1ccc(C)cc1-c1noc2cc(F)c(-n3c(=O)cc(C(F)(F)F)n(C)c3=O)cc12 .
Output line: 8.8

Input line: Lab note: Oryza sativa, (L.) Tebonnet assay, enter herbicidal effect rating ORYSAT for C#CCOC(=O)COc1ccc(OC)cc1-c1nsc2ccc(-n3c(=O)cc(C(F)(F)F)n(C)c3=O)cc12 here
Output line: 7.0

Input line: Answer with herbicidal effect rating ORYSAT of CON(C)C(=O)COc1ccccc1-c1nsc2ccc(-n3c(=O)cc(C(F)(F)F)n(C)c3=O)cc12 measured for Oryza sativa, (L.) Tebonnet.
Output line: 9.0

Input line: Consider the compound Cn1c(C(F)(F)F)cc(=O)n(-c2ccc3snc(C(=O)NS(=O)(=O)c4ccc(Cl)cc4)c3c2)c1=O tested on Oryza sativa, (L.) Tebonnet; state its herbicidal effect rating ORYSAT.
Output line: 4.5

Input line: Look up and report herbicidal effect rating ORYSAT, with Oryza sativa, (L.) Tebonnet as system, for Cc1ccc(C=C(C#N)c2nsc3ccc(-n4c(=O)cc(C(F)(F)F)n(C)c4=O)cc23)cc1
Output line: 0.0

Input line: Quote Oryza sativa, (L.) Tebonnet herbicidal effect rating ORYSAT for entry CCSCCOC(=O)c1nsc2ccc(-n3c(=O)cc(C(F)(F)F)n(C)c3=O)cc12 .
Output line: 7.0

Input line: State herbicidal effect rating ORYSAT on Oryza sativa, (L.) Tebonnet. Entry: CC(Oc1ccccc1-c1nsc2ccc(-n3c(=O)cc(C(F)(F)F)n(C)c3=O)cc12)C(=O)O (stereo not drawn)
Output line: 4.0

Input line: Report the value of herbicidal effect rating ORYSAT obtained on Oryza sativa, (L.) Tebonnet for Cn1c(C(F)(F)F)cc(=O)n(-c2ccc3snc(C(C#N)=Cc4cc5ccccc5[nH]4)c3c2)c1=O .
Output line: 6.0

Input line: For Oryza sativa, (L.) Tebonnet, give herbicidal effect rating ORYSAT of the listed compound: CC(O)c1nsc2ccc(-n3c(=O)cc(C(F)(F)F)n(C)c3=O)cc12 (stereo not drawn)
Output line: 6.0

Input line: Please look at CC/C(C=O)=C\c1nsc2ccc(-n3c(=O)cc(C(F)(F)F)n(C)c3=O)cc12 and tell me its recorded herbicidal effect rating ORYSAT on Oryza sativa, (L.) Tebonnet.
Output line: 1.0

Input line: Look up and report measured herbicidal effect rating ORYSAT (Oryza sativa, (L.) Tebonnet) for the following compound: CC(C)NC(=O)c1nsc2ccc(-n3c(=O)cc(C(F)(F)F)n(C)c3=O)cc12
Output line: 7.0

Input line: Please respond with reported herbicidal effect rating ORYSAT (system Oryza sativa, (L.) Tebonnet) for CCCCS(=O)(=O)NC(=O)C(C)Oc1ccc(C)cc1-c1nsc2ccc(-n3c(=O)cc(C(F)(F)F)n(C)c3=O)cc12 (stereo not drawn) .
Output line: 0.0

Input line: Give the observed herbicidal effect rating ORYSAT of Cc1ccc(OC(C)C(=O)NS(C)(=O)=O)c(-c2nsc3ccc(-n4c(=O)cc(C(F)(F)F)n(C)c4=O)cc23)c1 (stereo not drawn) for Oryza sativa, (L.) Tebonnet.
Output line: 3.0

Input line: # assay system Oryza sativa, (L.) Tebonnet: give herbicidal effect rating ORYSAT of CN(C(=O)c1nsc2ccc(-n3c(=O)cc(C(F)(F)F)n(C)c3=O)cc12)c1ccc(Cl)cc1
Output line: 5.0

Input line: Fetch value of herbicidal effect rating ORYSAT on Oryza sativa, (L.) Tebonnet for Cn1c(C(F)(F)F)cc(=O)n(-c2ccc3snc(COCc4ccc(Cl)cc4)c3c2)c1=O .
Output line: 1.0

Input line: Give the observed herbicidal effect rating ORYSAT of COc1ccccc1C=C(C#N)c1nsc2ccc(-n3c(=O)cc(C(F)(F)F)n(C)c3=O)cc12 for Oryza sativa, (L.) Tebonnet.
Output line: 3.0

Input line: Check Oryza sativa, (L.) Tebonnet data and give herbicidal effect rating ORYSAT for COC(=O)COc1cccc(-c2nsc3ccc(-n4c(=O)cc(C(F)(F)F)n(C)c4=O)cc23)c1 .
Output line: 5.5

Input line: Provide herbicidal effect rating ORYSAT, system Oryza sativa, (L.) Tebonnet, entry COCCOCCOC(=O)c1nsc2ccc(-n3c(=O)cc(C(F)(F)F)n(C)c3=O)cc12
Output line: 4.0

Input line: Fill in: herbicidal effect rating ORYSAT on Oryza sativa, (L.) Tebonnet, entry Cn1c(C(F)(F)F)cc(=O)n(-c2ccc3snc(C(=O)CCl)c3c2)c1=O
Output line: 3.0

Input line: Give herbicidal effect rating ORYSAT for Cn1c(C(F)(F)F)cc(=O)n(-c2ccc3snc(C(C#N)=Cc4ccccn4)c3c2)c1=O tested on Oryza sativa, (L.) Tebonnet.
Output line: 4.0

Input line: Give measured herbicidal effect rating ORYSAT for Cn1c(C(F)(F)F)cc(=O)n(-c2ccc3snc(COCc4ccc(Cl)c(Cl)c4)c3c2)c1=O (Oryza sativa, (L.) Tebonnet).
Output line: 2.0

Input line: Look up Oryza sativa, (L.) Tebonnet data: herbicidal effect rating ORYSAT of Cn1c(C(F)(F)F)cc(=O)n(-c2ccc3snc(C(=O)Nc4cc(C(C)(C)C)on4)c3c2)c1=O , then report it.
Output line: 0.0

Input line: Identify measured herbicidal effect rating ORYSAT obtained with Oryza sativa, (L.) Tebonnet for COc1cccc(-c2nsc3ccc(-n4c(=O)cc(C(F)(F)F)n(C)c4=O)cc23)c1 .
Output line: 2.5

Input line: With Oryza sativa, (L.) Tebonnet as the test system, provide measured herbicidal effect rating ORYSAT for this compound: Cc1ccc(OCC(=O)N(C)O)c(-c2nsc3ccc(-n4c(=O)cc(C(F)(F)F)n(C)c4=O)cc23)c1
Output line: 5.5

Input line: Under Oryza sativa, (L.) Tebonnet: report herbicidal effect rating ORYSAT of Cn1c(C(F)(F)F)cc(=O)n(-c2ccc3snc(C(=O)NS(=O)(=O)c4cccs4)c3c2)c1=O .
Output line: 3.0

Input line: Report measured herbicidal effect rating ORYSAT on Oryza sativa, (L.) Tebonnet; entry: CSc1ccc(C)cc1-c1nsc2ccc(-n3c(=O)cc(C(F)(F)F)n(C)c3=O)cc12
Output line: 2.0

Input line: Provide herbicidal effect rating ORYSAT, recorded with Oryza sativa, (L.) Tebonnet, of Cn1c(C(F)(F)F)cc(=O)n(-c2ccc3snc(C(C#N)=Cc4ccoc4)c3c2)c1=O
Output line: 0.0

Input line: Write down measured herbicidal effect rating ORYSAT (Oryza sativa, (L.) Tebonnet) for this compound. COc1ccc(C)cc1-c1noc2cc(F)c(-n3c(=O)cc(C(F)(F)F)n(C)c3=O)cc12
Output line: 5.5

Source: patent EP0908457B1
